Source listed as ChEMBL document CHEMBL1158580.

System: Staphylococcus aureus
Experiment: Antibacterial activity against Staphylococcus aureus NCIM 5021 by microdilution method
Type: functional

# molecule, unit_abbreviation, MIC
records = [
    ("CSc1ccc(C2CC(c3ccccc3)=NN2c2ccccc2)cc1 (stereo not given)", "µM", 726),
    ("CSc1ccc(C2CC(c3cccc(Br)c3)=NN2c2ccccc2)cc1 (stereo not given)", "µM", 591),
    ("CSc1ccc(C2CC(c3ccc(F)cc3)=NN2c2ccccc2)cc1 (stereo not given)", "µM", 690),
    ("CSc1ccc(C2CC(c3ccc(Br)cc3)=NN2c2ccccc2)cc1 (stereo not given)", "µM", 591),
    ("COc1ccc(C2=NN(c3ccccc3)C(c3ccc(SC)cc3)C2)cc1OC (stereo not given)", "µM", 618),
]

###

The following compounds are listed with their measured MIC values.
Tested on: Staphylococcus aureus
Assay: Antibacterial activity against Staphylococcus aureus NCIM 5021 by microdilution method
Format: functional

# compound, MIC [µM]
measured = [
    ("CCOc1ccc(C2=NN(c3ccccc3)C(c3ccc(SC)cc3)C2)cc1 (stereo unspecified)", 643),
    ("CSc1ccc(C2CC(c3ccc(C)cc3)=NN2c2ccccc2)cc1 (stereo unspecified)", 697),
    ("CS(=O)(=O)c1ccc(C2CC(c3ccccc3)=NN2c2ccccc2)cc1 (stereo unspecified)", 664),
    ("COc1cccc(C2=NN(c3ccccc3)C(c3ccc(SC)cc3)C2)c1 (stereo unspecified)", 668),
    ("CSc1ccc(C2CC(c3cccc(N)c3)=NN2c2ccccc2)cc1 (stereo unspecified)", 694),
    ("CSc1ccc(C2CC(c3ccccc3Cl)=NN2c2ccccc2)cc1 (stereo unspecified)", 330),
]

###

System: Salmonella enterica
Test: Antibacterial activity against Salmonella typhi NCIM 2501 by microdilution method
Assay type: functional, Salmonella enterica subsp. enterica serovar Typhi
observed_property: MIC (µM)

# compound, observed_property, observed
data = [
    ("CSc1ccc(C2CC(c3ccc(Br)cc3)=NN2c2ccccc2)cc1 (stereo unspecified)", "MIC", 0.295),
    ("CS(=O)(=O)c1ccc(C2CC(c3ccccc3)=NN2c2ccccc2)cc1 (stereo unspecified)", "MIC", 0.332),
    ("COc1ccc(C2=NN(c3ccccc3)C(c3ccc(SC)cc3)C2)cc1 (stereo unspecified)", "MIC", 0.334),
    ("CSc1ccc(C2CC(c3ccc(F)cc3)=NN2c2ccccc2)cc1 (stereo unspecified)", "MIC", 0.69),
    ("CSc1ccc(C2CC(c3cccc(N)c3)=NN2c2ccccc2)cc1 (stereo unspecified)", "MIC", 0.347),
    ("CSc1ccc(C2CC(c3cccc4c3OCO4)=NN2c2ccccc2)cc1 (stereo unspecified)", "MIC", 0.322),
    ("CSc1ccc(C2CC(c3ccccc3)=NN2c2ccccc2)cc1 (stereo unspecified)", "MIC", 0.726),
    ("COc1ccc(C2=NN(c3ccccc3)C(c3ccc(SC)cc3)C2)cc1OC (stereo unspecified)", "MIC", 0.309),
    ("CSc1ccc(C2CC(c3cccc(Br)c3)=NN2c2ccccc2)cc1 (stereo unspecified)", "MIC", 0.295),
    ("COc1cccc(C2=NN(c3ccccc3)C(c3ccc(SC)cc3)C2)c1 (stereo unspecified)", "MIC", 0.334),
    ("CSc1ccc(C2CC(c3ccccc3Cl)=NN2c2ccccc2)cc1 (stereo unspecified)", "MIC", 0.33),
    ("CSc1ccc(C2CC(c3ccc(C)cc3)=NN2c2ccccc2)cc1 (stereo unspecified)", "MIC", 0.349),
    ("CSc1ccc(C2CC(c3ccc(Cl)cc3)=NN2c2ccccc2)cc1 (stereo unspecified)", "MIC", 0.33),
    ("CS(=O)(=O)c1ccc(C2CC(c3ccc(Cl)cc3)=NN2c2ccccc2)cc1 (stereo unspecified)", "MIC", 0.304),
    ("CCOc1ccc(C2=NN(c3ccccc3)C(c3ccc(SC)cc3)C2)cc1 (stereo unspecified)", "MIC", 0.322),
    ("CSc1ccc(C2CC(c3cccc([N+](=O)[O-])c3)=NN2c2ccccc2)cc1 (stereo unspecified)", "MIC", 0.321),
]
